Origin of values: patent US20180244611A1

measurementTarget: F508delCFTR (Homo sapiens, UniProt P13569, DEL508-508)
Construct: expressed in transfected cells; host or cells: CFBE41o- human lung-derived epithelial cells (CFBE41o-F508delCFTR-HRP), doxycycline-inducible
Sequence (P13569 with tags, fused parts or gaps DEL508-508): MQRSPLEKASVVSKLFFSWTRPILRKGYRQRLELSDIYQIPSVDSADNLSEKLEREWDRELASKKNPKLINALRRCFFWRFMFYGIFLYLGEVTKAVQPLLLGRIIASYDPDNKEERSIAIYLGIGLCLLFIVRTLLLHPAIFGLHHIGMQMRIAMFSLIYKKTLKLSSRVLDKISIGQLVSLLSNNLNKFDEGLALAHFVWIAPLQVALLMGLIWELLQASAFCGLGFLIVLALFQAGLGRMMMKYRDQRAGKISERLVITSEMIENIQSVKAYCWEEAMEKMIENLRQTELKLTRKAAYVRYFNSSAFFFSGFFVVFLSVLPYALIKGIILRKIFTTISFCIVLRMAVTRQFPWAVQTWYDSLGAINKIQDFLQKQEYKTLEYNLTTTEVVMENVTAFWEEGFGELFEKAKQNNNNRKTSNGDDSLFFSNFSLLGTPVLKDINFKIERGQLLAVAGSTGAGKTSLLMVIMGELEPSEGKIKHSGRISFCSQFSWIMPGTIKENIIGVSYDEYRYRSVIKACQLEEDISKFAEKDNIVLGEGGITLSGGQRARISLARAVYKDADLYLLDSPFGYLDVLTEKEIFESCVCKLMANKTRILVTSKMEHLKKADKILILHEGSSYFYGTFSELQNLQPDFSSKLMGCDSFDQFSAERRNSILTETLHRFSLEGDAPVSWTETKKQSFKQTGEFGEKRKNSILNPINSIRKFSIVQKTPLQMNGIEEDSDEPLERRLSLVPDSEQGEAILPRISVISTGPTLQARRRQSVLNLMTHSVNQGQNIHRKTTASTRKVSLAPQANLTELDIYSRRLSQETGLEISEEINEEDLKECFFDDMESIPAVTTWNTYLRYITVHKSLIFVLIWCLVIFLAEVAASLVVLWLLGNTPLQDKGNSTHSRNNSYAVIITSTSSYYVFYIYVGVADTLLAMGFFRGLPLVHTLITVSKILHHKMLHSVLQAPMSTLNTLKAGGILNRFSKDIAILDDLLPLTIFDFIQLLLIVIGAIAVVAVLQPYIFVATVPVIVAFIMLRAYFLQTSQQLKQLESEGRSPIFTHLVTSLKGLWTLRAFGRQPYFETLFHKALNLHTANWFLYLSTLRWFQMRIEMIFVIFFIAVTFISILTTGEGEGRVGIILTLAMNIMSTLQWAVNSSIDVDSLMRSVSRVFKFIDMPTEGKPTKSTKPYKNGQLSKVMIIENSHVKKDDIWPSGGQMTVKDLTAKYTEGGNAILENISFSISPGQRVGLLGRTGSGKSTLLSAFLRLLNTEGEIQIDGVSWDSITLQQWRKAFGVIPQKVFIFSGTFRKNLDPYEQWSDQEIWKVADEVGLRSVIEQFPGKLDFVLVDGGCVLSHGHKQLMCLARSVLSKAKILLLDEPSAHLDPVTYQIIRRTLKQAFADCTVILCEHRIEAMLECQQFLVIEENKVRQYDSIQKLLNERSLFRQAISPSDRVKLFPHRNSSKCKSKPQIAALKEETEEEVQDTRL
assayProtocol: Cell Surface Expression-Horse Radish Peroxidase (CSE-HRP) assay, test compound with co-corrector;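 also: percent of 2 µM positive control corrector over DMSO; co-corrector is that same compound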
Type: cell-based
statedConditions: maximum at any tested concentration, normalized to positive control, with 2 μM co-corrector
measurementKind: Maximum % activity (with co-corrector)

# example entries with known answers
| compound | result |
| --- | --- |
| O=C(NS(=O)(=O)c1cccc2ccccc12)C1(CC2CC2)CCc2c(Cl)cccc21 (centres unmarked) [Example I-29] | +++ (≥350) |
| CCN1CCC[C@H]1CNC(=O)c1cc(S(=O)(=O)NC(=O)C2CCc3c(OC)cccc32)ccc1OC (some centres unmarked) [III-52] | + (<150) |
| CCC1(C(=O)NS(=O)(=O)c2cccc3c(Cl)cccc23)CCc2c(Cl)cccc21 (centres unmarked) [Example I-39] | +++ (≥350) |
| COc1ccc(Br)c2c1C(C(=O)NS(=O)(=O)c1cccc3ncc(C)n13)CC2 (centres unmarked) [Example I-100] | +++ (≥350) |

// COc1ccc(Br)c2c1C(C(=O)NS(=O)(=O)c1cccc3nc(C)cn13)CC2 (centres unmarked) [Example I-101] : Maximum % activity (with co-corrector) value = +++ (≥350)

// COc1cccc2c1CCC2C(=O)NS(=O)(=O)c1c(C)nn(CCCl)c1C (centres unmarked) [III-51] : Maximum % activity (with co-corrector) value = + (<150)

// COc1ncc(Br)c2c1[C@H](C(=O)NS(=O)(=O)c1cccc3ccccc13)CCC2 [Example I-116] : Maximum % activity (with co-corrector) value = +++ (≥350)

// CC[C@@]1(C(=O)NS(=O)(=O)c2cccc3ccccc23)CCc2c(Cl)cccc21 [Example I-18] : Maximum % activity (with co-corrector) value = +++ (≥350)
